TESTED_ON: T1, human C16orf54 ECD fragment aa9-24 (human)
T1 peptide: SGRVEGPPAWEAAPWP
METHOD: peptide ELISA, 2 ug/ml peptide coated, 10 ug/ml antibody
Protocol: Anti-C16orf54 antibodies which bind to human C16orf54, including antibodies that are crossreactive with cyno C16orf54, were tested for their binding to various peptides derived from C16orf54 in a peptide ELISA. […] The luminescence signal was determined.
ENDPOINT: binding result

>  <BINDER>
R29-8-57B (antibody, V domains shown, Murine monoclonal antibody from a hybridoma) VH: DVQLQESGPGLVKPSQSLSLTCTVTGYSITSDYAWNWIRQFPGNKLEWMGYINYSGSTRYNPSLKSRISITRDTSKNHFFLQLNSVTPEDTATYHCARERYDGVYYGMDYWGQGTSVTVSS VL: DIVMSQSPSSLAVSVGEKVTMSCKSSQSLLYSSNQKNYLAWYQQKPGQSPKLLIYWASTRESGVPDRFTGSGSGTDFTLTISSVKTEDLAVYYCQQYYSYRTFGGGTKLEIK

>  <ENDPOINT>
binding result

>  <ENDPOINT_VALUE>
binds

$$$$
